run_description: method code SF, from Hansch, C. & Leo, A. (1987). Log P database [Dataset]. Pomona College Medicinal Chemistry Project.
quantity_kind: logP
Number only, please.

Which logP value is on record for CN(C(=O)CCSC#N)c1ccc(S(=O)(=O)N(C)C)cc1 ?
0.84

Which logP value is on record for CSC(=O)Nc1ccccc1 ?
2.4

Which logP value is on record for CC1=Nc2c([N+](=O)[O-])cc(Cl)cc2S(=O)(=O)N1 ?
0.85

Which logP value is on record for c1ccc2[nH]c(CCCCc3nc4ccccc4[nH]3)nc2c1 ?
1.59

Which logP value is on record for CC(=O)OCC1CCC(NC(=O)N(CCCl)N=O)CC1 (stereo not drawn) ?
2.24

Which logP value is on record for CC1CCCC1 ?
3.37

Which logP value is on record for C(=N\c1ccccc1)/c1ccccc1 ?
2.82

Which logP value is on record for CCC(C)c1cnc(CC(C)C)c(=O)n1O (stereo not drawn) ?
1.81

Which logP value is on record for CCC1OC(=O)C(C)C(OC2CC(C)(O)C(C)O2)C(C)C(OC2OC(C)C(O)C(N(C)C)C2O)C(C)(O)CC(C)C(=O)C(C)C(O)C1(C)O (stereo not drawn) ?
1.44

Which logP value is on record for COc1cc(C=NO)ccc1OCCO ?
0.82

###

run_description: method code SF, from Hansch, C. & Leo, A. (1987). Log P database [Dataset]. Pomona College Medicinal Chemistry Project.
quantity_kind: logP
Number only, please.

These recorded examples may help you get a feel for the data.
molecule | quantity_kind | assay_value
Cc1ccccc1/C=N/O | logP | 2.53
CC(=O)CF | logP | -0.39

Which logP value is on record for CCOC(=O)c1cccnc1 ?
1.34

Which logP value is on record for Cn1ccc(=O)cc1 ?
-1.22

Which logP value is on record for COc1cccc2c1C(=O)c1c(O)c3c(c(O)c1C2=O)CC(O)(C(=O)CN1CCOCC1)CC3OC1CC(N)C(O)C(C)O1 (stereo not given) ?
0.23

###

run_description: method code SF, from Hansch, C. & Leo, A. (1987). Log P database [Dataset]. Pomona College Medicinal Chemistry Project.
Classification field. Basis: logP. Definitions: lower band (below 0.9), central band (0.9 to below 2), upper band (2 or more)

compound | qualitative_label
CCOC(=O)CC(=O)C=Cc1ccc(C)cc1 | upper band
N#C/C(=C\c1ccccc1)C(N)=O | central band
N#CN=[N+]([O-])c1cccc(F)c1 | central band
CCC(C)=O | lower band
CC(=O)O[C@@H]1[C@@H](OC(C)=O)[C@H](OC(C)=O)CO[C@H]1NC(=O)N(CCCl)N=O | central band

Which bin should I file COc1cccc(OC)c1 under?
upper band

Which bin should I file O=C1CC(=O)c2ccccc21 under?
lower band

Which bin should I file Nc1nc(O)c2nc[nH]c2n1 under?
lower band

Which bin should I file Cn1ccc(=O)c2ccccc21 under?
lower band

Which bin should I file CC(CN(C)C)CN1c2ccccc2Sc2ccccc21 (stereo unspecified) under?
upper band

Which bin should I file CC(=O)Nc1ccc(C(N)=O)cc1 under?
lower band

Which bin should I file CNC(=O)Oc1cccc(Cl)c1Cl under?
upper band

Which bin should I file CCOC(=O)C(=Cc1cccc(Cl)c1)C(C)=O under?
upper band

Which bin should I file O=[N+]([O-])C=Cc1ccsc1 under?
central band

Attribution: the SangsterLogP compilation
